The measurements presented in this section are drawn from paper PMC8159961.

target: human thrombin (Homo sapiens, UniProt P00734); construct: human thrombin; purchased Sigma-Aldrich; assay: Protease inhibitory assay, chromogenic substrate S-2238; assay type: biochemical; conditions: plate layout, label = plate position; Cheng-Prusoff, Km 2.6 µM; read-out: Thrombin Ki
pKi: −log10 of the molar value.
# pKi >= 4 gives satisfied, anything below gives not satisfied

CC(=O)c1sc(-c2ccc(O)cc2)nc1C [E1] = not satisfied

Turning now to a further compound:
Task: Check this compound for pKi at or above 4: O=C(O)C1CCN(c2ncccn2)CC1 [E9]
Output: satisfied

----------
molecular target: human thrombin (Homo sapiens); construct: human thrombin; purchased Sigma-Aldrich; test: Protease inhibitory assay, chromogenic substrate S-2238; assay type: biochemical; details: Thrombin primary screening; substrate 40 µM; cmpd conc 500 µM
Respond with Satisfied for V0 / Vi values of 1 and above, Not satisfied for values below.

Task: Does O=C1CCC(=O)N(c2ccccc2)N1 have a reported V0 / Vi of at least 1?
Output: Satisfied

Task: Textbook exercise: given the entry O=C(O)c1cnc(-c2ccccc2)s1 , state whether its V0 / Vi is greater than or equal to 1.
Output: Satisfied

Task: Does the reported V0 / Vi for O=c1[nH]ncc2c1oc1ccccc12 fall at or above the 1 mark?
Output: Satisfied
